Entry source: patent US8211916B2

target-system: rat SERT (Rattus norvegicus)
Construct: from tissue; host or cells: rat striatum (membranes)
Sequence (P31652 whole entry): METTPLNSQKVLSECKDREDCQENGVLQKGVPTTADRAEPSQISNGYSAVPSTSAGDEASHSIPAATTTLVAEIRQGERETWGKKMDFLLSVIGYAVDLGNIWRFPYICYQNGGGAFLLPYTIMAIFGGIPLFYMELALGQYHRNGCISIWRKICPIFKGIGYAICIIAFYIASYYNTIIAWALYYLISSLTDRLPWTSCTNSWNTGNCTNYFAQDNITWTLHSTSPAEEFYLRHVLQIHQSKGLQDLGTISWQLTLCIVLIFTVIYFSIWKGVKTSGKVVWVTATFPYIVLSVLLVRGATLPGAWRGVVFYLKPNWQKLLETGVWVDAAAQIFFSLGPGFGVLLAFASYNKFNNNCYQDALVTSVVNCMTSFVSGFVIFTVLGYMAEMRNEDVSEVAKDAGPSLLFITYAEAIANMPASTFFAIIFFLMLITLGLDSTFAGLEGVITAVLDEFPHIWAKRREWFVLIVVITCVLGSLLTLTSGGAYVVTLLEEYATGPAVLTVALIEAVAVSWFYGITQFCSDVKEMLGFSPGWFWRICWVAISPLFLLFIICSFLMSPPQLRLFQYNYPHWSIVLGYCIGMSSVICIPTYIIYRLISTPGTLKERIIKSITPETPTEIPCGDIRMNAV
test-details: Rat SERT binding, [3H]citalopram, striatal membranes
Can you tell me IC50 for the items I'm about to list?

stdin: Give IC50 for this entry on rat SERT (Rattus norvegicus): Fc1ccc(CN[C@H]2CC[C@H](C(c3ccccc3)c3ccccc3)NC2)cc1 (racemic) [(±)-7b]
stdout: 1330 nM

stdin: System rat SERT (Rattus norvegicus). Read-out IC50. Item Fc1ccc(CNC2CCC(C(c3ccccc3)c3ccccc3)NC2)cc1 (racemic) [(±)-7a] . Report value.
stdout: 2810 nM

stdin: // fetch IC50 for O=C1CN(Cc2ccc(F)cc2)CCC1CCOC(c1ccccc1)c1ccccc1 (racemic) ; system: rat SERT (Rattus norvegicus)
stdout: 7750 nM

stdin: Determine reported IC50 for OC1CN(Cc2ccc(F)cc2)CCC1CCOC(c1ccccc1)c1ccccc1 (racemic) ; test system: rat SERT (Rattus norvegicus).
stdout: 1110 nM

----------
target-system: rat SERT (Rattus norvegicus)
Construct: from tissue; host or cells: rat striatum (membranes)
test-details: Rat SERT binding, [3H]citalopram, striatal membranes
condition-label: Table 1; read-out: SERT, IC50
For each entry below, report its IC50 value.
Provide only the numeric value, understood in nM.

stdin: Output IC50 of FC(F)(F)c1ccc(CN2CCC(CCOC(c3ccccc3)c3ccccc3)CC2)cc1
stdout: 2260

stdin: Using the record for Fc1ccc(CN2CCC(CCNC(c3ccccc3)c3ccccc3)CC2)cc1F , state its measured IC50.
stdout: 1590

stdin: Item CC(NCCC1CCN(Cc2ccc(F)cc2)CC1)c1ccccc1 (centres unmarked) : provide IC50
stdout: 963

stdin: Report IC50, nothing else, for this compound: Fc1ccc(CN2CCC(CCOC(c3ccccc3)c3ccccc3)CC2)cc1F
stdout: 1220

----------
target-system: Norepinephrine (NET) Transporter (Rattus norvegicus, UniProt Q63380)
Construct: and norepinephrine Transporters in Rat Striatum; from tissue
Sequence (Q63380 1-617): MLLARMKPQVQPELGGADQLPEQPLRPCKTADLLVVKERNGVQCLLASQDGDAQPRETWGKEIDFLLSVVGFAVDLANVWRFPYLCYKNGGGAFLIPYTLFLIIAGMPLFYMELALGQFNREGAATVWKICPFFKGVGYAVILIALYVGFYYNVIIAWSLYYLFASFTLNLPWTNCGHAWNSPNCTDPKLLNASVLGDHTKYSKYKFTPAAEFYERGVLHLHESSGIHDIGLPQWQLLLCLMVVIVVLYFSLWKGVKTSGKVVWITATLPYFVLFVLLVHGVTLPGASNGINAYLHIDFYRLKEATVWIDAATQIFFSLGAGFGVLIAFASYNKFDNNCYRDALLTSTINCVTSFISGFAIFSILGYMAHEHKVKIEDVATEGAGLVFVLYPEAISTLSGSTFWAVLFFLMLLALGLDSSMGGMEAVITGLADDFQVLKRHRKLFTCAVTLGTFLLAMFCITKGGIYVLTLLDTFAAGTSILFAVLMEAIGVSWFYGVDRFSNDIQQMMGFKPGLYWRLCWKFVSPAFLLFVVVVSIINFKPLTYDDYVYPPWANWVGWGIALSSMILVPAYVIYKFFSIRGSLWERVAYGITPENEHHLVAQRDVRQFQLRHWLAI
test-details: NET binding, [3H]nisoxetine
condition-label: Table 3; read-out: NET, IC50, nM [3H]nisoxetine
Provide the reported IC50 of each item.
Report the value in nM with no unit label.

stdin: Name the recorded IC50 of the compound listed here: Fc1ccc(CNC2CCC(C(c3ccccc3)c3ccccc3)NC2)cc1 (racemic) [(±)-7a]
stdout: 1350

stdin: Specify measured IC50 for Fc1ccc(CN[C@H]2CC[C@H](C(c3ccccc3)c3ccccc3)NC2)cc1 (racemic) [(±)-7b] .
stdout: 4470

----------
Where a name gives a salt, the structure may show the parent alone.
measure: melting point

stdin: // Input: Fc1ccc(CN2CCC(CNOC(c3ccccc3)c3ccccc3)CC2)cc1 (as salt: oxalate) . Output its melting point only.
stdout: 154 to 155 °C

stdin: Check the records and state melting point for CS(=O)(=O)Nc1ccc(CN2CCC(CCOC(c3ccccc3)c3ccccc3)CC2)cc1 (as salt: oxalate)
stdout: 122 to 124 °C

stdin: Please give the documented melting point of Fc1ccc(CN2CCC(CNCC(c3ccccc3)c3ccccc3)CC2)cc1 (as salt: HCl)
stdout: 126 to 127 °C

stdin: // fetch melting point given entry Fc1ccc(CN2CCC(CCOC(c3ccccc3)c3ccccc3)CC2)cc1F (as salt: oxalate)
stdout: 158 to 159 °C

stdin: Output melting point of Fc1ccc(CN2CCC(CCNC(c3ccccc3)c3ccccc3)CC2)cc1F (as salt: HCl)
stdout: 280 to 281 °C

stdin: Please report melting point for the following compound: CN(CC1CCN(Cc2ccc(F)cc2)CC1)CC(c1ccccc1)c1ccccc1 (as salt: oxalate)
stdout: 144 to 145 °C
